Attribution: ChEMBL document CHEMBL1649243

Overview of recorded MIC for various compounds
- Test system: Escherichia coli
- run description: Antimicrobial activity against Escherichia coli NO8-1503 harboring blaTEM-168 gene by Etest
- Type: functional
// note: answer is a bare numeric in µg/mL

Some entries whose results are on file:
CO/N=C(\C(=O)N[C@@H]1C(=O)N2C(C(=O)O)=C(COC(C)=O)CS[C@H]12)c1csc(N)n1 [CEFOTAXIME] : 0.25
CO/N=C(\C(=O)N[C@@H]1C(=O)N2C(C(=O)[O-])=C(C[N+]3(C)CCCC3)CS[C@H]12)c1csc(N)n1 : 2
CC(C)(O/N=C(\C(=O)N[C@@H]1C(=O)N2C(C(=O)[O-])=C(C[n+]3ccccc3)CS[C@H]12)c1csc(N)n1)C(=O)O [CEFTAZIDIME] : 3

Here is the next item to consider.
Ask | Fill in the blank: the reported MIC of CO[C@@]1(NC(=O)Cc2cccs2)C(=O)N2C(C(=O)O)=C(COC(N)=O)CS[C@@H]21 [CEFOXITIN] is ____.
Reply | 12
